- Test system: COR-L 105
- METHOD_SUMMARY: relative viability (nuclei count vs DMSO), 5 days (fraction); higher = more cells survive
- EXPERIMENTAL_SETUP: first compound 0.1265 µM
// classify: if (relative viability < 0.8) criterion met else criterion not met

[[record]]
compound = "O=C(O)c1ccc(-c2c[nH]c3ncc(-c4ccccc4)cc23)cc1C1CCCC1 + CCNC(=O)c1noc(-c2cc(C(C)C)c(O)cc2O)c1-c1ccc(CN2CCOCC2)cc1 [Luminespib] (partner 0.01 µM)"
target_under_test = "COR-L 105"
category = "criterion met"

[[record]]
compound = "O=C(O)c1ccc(-c2c[nH]c3ncc(-c4ccccc4)cc23)cc1C1CCCC1 + O=C(c1cc(Cc2n[nH]c(=O)c3ccccc23)ccc1F)N1CCN(C(=O)C2CC2)CC1 [Olaparib] (partner 8 µM)"
target_under_test = "COR-L 105"
category = "criterion met"

[[record]]
compound = "O=C(O)c1ccc(-c2c[nH]c3ncc(-c4ccccc4)cc23)cc1C1CCCC1 + N=C(N)NC(=N)NCCc1ccccc1 [Phenformin] (partner 250 µM)"
target_under_test = "COR-L 105"
category = "criterion met"

[[record]]
compound = "O=C(O)c1ccc(-c2c[nH]c3ncc(-c4ccccc4)cc23)cc1C1CCCC1 + CC1(C)CCC(c2ccc(Cl)cc2)=C(CN2CCN(c3ccc(C(=O)NS(=O)(=O)c4ccc(N[C@H](CCN5CCOCC5)CSc5ccccc5)c(S(=O)(=O)C(F)(F)F)c4)cc3)CC2)C1 [Navitoclax] (partner 0.5 µM)"
target_under_test = "COR-L 105"
category = "criterion not met"


* * *

- Tested on: NCI-H2347
- METHOD_SUMMARY: relative viability (nuclei count vs DMSO), 5 days (fraction); higher = more cells survive
- EXPERIMENTAL_SETUP: first compound 0.8 µM
ENDPOINT_LABEL: relative viability

[[record]]
compound = "Oc1nc(-c2ccc(C(F)(F)F)cc2)nc2c1CSCC2 [XAV939] + Nc1nc2[nH]cc(CCc3ccc(C(=O)N[C@@H](CCC(=O)O)C(=O)O)cc3)c2c(=O)[nH]1 [Pemetrexed] (partner 0.2 µM)"
endpoint_label = "relative viability"
measured_number = 0.435

[[record]]
compound = "Oc1nc(-c2ccc(C(F)(F)F)cc2)nc2c1CSCC2 [XAV939] + NC(=O)Nc1cc(-c2cccc(F)c2)sc1C(=O)N[C@H]1CCCNC1 [AZD7762] (partner 0.2 µM)"
endpoint_label = "relative viability"
measured_number = 0.796

[[record]]
compound = "Oc1nc(-c2ccc(C(F)(F)F)cc2)nc2c1CSCC2 [XAV939] + COc1cc2c(Oc3ccc(NC(=O)C4(C(=O)Nc5ccc(F)cc5)CC4)cc3F)ccnc2cc1OCCCN1CCOCC1 [Foretinib] (partner 0.25 µM)"
endpoint_label = "relative viability"
measured_number = 0.786

[[record]]
compound = "C=C1C(=O)O[C@@H](CCCCCCCC)[C@@H]1C(=O)O [C-75] + CS(=O)(=O)CCNCc1ccc(-c2ccc3ncnc(Nc4ccc(OCc5cccc(F)c5)c(Cl)c4)c3c2)o1 [Lapatinib] (partner 2 µM)"
endpoint_label = "relative viability"
measured_number = 0.965

[[record]]
compound = "Oc1nc(-c2ccc(C(F)(F)F)cc2)nc2c1CSCC2 [XAV939] + C[C@@H](Oc1cc(-c2cnn(C3CCNCC3)c2)cnc1N)c1c(Cl)ccc(F)c1Cl [Crizotinib] (partner 1 µM)"
endpoint_label = "relative viability"
measured_number = 0.75

